System: OVCAR-5 ovarian
Assay Method Text: NCI tumour cell line growth inhibition, 48 h
Quantity Name: TGI

Past entries and their recorded results:
COCOCCCCCO[Si](C)(C)C(C)(C)C | 44.9 µM
Cn1ccnc1C(=O)/C=C/c1ccc(C(=O)Nc2ccc(F)cc2)cc1 | 26.5 µM
CCOP(=O)(OCC)/C(=C\n1c(=S)[nH]c2cc(C)ccc21)C(=O)OC | > 100 µM
Cc1ncc(CSc2ccccc2N)c(CO)c1O | > 100 µM

# TGI (compound: C=C1C(=O)O[C@@H]2C[C@@H]3[C@]4(CC[C@]5(C)[C@@H]([C@H](C)CC/C=C(\C)C=O)CC[C@@]35C)C[C@]4(CCC(=O)OC)[C@H]12 ) is 3.96 µM

TGI reading for N#C/C(=C/c1cccc2ccccc12)C(=O)c1ccccc1 : 50.1 µM

CN(C)C=Nc1ccc2c3c(cccc13)-c1ccccc1-2 has a reported TGI of 23.1 µM

Lab book: TGI of COc1cc(/C=C\c2cc(/C=C\c3ccc(O)c(OC)c3)n(C(=O)COc3ccc(Cl)cc3Cl)n2)ccc1O noted as 8.32 µM

====

System: OVCAR-5 ovarian
Assay Method Text: NCI tumour cell line growth inhibition, 48 h
// values below are reported TGI
Supply the numeric figure in µM, leaving out any unit text.

CC(C)(O)C1CC[C@]2(C)CC[C@]3(C)[C@H](CC[C@@H]4[C@@]5(C)CC[C@H](O)C(C)(C)[C@@H]5CC[C@]43C)[C@@H]12 (stereo not given in full) | 75.9

API: the following record is the query input.
Query CCOC(=O)C(=Cc1ccc(-c2ccccc2)cc1)C(=O)OCC on OVCAR-5 ovarian; TGI returned: 6.48

====

System: NCI-H460 lung
Assay Method Text: NCI tumour cell line growth inhibition, 48 h
Quantity Name: TGI

The reported TGI of the molecule Cn1c(CCC2(C)Cc3ccccc3C(=O)O2)cc2ccccc2c1=O (stereo unspecified) was 76.8 µM

# TGI (molecule: CCOc1c(OC)cc(C2c3cc4c(c(OCC)c3CC3COC(=O)C32)OCO4)cc1OC (stereo unspecified) ) is > 100 µM

// CN1CCN(CCCOc2ccc3ncnc(Nc4ccc(OCc5cccc(F)c5)c(Cl)c4)c3c2)CC1 : TGI value = 3.38 µM

====

System: NCI/ADR-RES ovarian
Assay Method Text: NCI tumour cell line growth inhibition, 48 h
TGI: recorded values

// worked examples, TGI included
Cc1[nH]n(-c2ncc(C#N)c(=O)[nH]2)c(=O)c1CCO | > 100 µM
COc1cc(Cl)cc(-c2nn(-c3cccc(NC(=O)c4cccc(C(F)(F)F)c4)c3)cc2-c2ccncc2)c1 | > 100 µM
Cc1ccc2c(=O)cc(-c3ccc(Cl)cc3)[nH]c2n1 | > 28.3 µM
Cn1c(CCC2(C)Cc3ccccc3C(=O)O2)cc2ccccc2c1=O (stereo not given) | > 100 µM
CCCCC(CCCC)=NNC(=S)SC | > 100 µM

Looking up COc1ccc2c(c1)C(=Nc1ccc(F)c(F)c1F)c1c-2c(Nc2ccc(F)c(F)c2F)nc2ccccc12 , I found its TGI recorded as > 82.8 µM

# TGI (compound: NC12CC3C4CC5(N)CC3C(C1)C(C5)C4C2 ) is > 100 µM

Looking up COc1ccc(-c2ncnc(-c3ccc(OC)c(OC)c3)n2)cc1OC , I see its TGI listed as > 100 µM

Entry CC1=C(C)C2(C#N)C(=O)N3C(=NC(c4ccccc4)NC3c3ccccc3)C2(C#N)C(c2ccccc2)N1 (stereo not given) , TGI reported as > 100 µM

// recorded TGI for CC1=C(C(=O)OCCc2ccc([N+](=O)[O-])cc2)C(c2cccc([N+](=O)[O-])c2)C(C(=O)OC(C)C)=C(C)N1 (stereo not given) : > 100 µM
